- System: MS2 coat protein
- method_notes: apparent KD of MS2 coat protein; higher = weaker reporter binding
- details: Eterna round: R107; input ligand: theophylline 2 mM

polymer_sequence	target_under_test	apparent KD of MS2 coat protein
AUACAUGAGGAUCACCCAUGUAUAGUUGAAGGAGCGACCGGUGGGUCAGGUAGGUCGCAGCGCAUGGCGUCCACGCGUGUAUGCC [#1 Exclusion - Arginine A Attempt #30 (Inspired by Pi)]	MS2 coat protein	0.0113 µM
UAUGCACAUGAGGAUCACCCAUGUAUGGAAGGAGCGGUGAAUAAACCAGGUAGGUCGCCAUGGUGAGGGUCAUCUAUGUAAUCGU [Exclusion - Arginine A (Freestyle 5)]	MS2 coat protein	0.0803 µM
GGCGCGGUGAUGGUAGCCGGACGCUAGGUACGAGGACCGGUACGGCCGCCACUCGGAGUCCUGGGACAUGAGGAUCACCCAUGUA [Same State Trp A GF18]	MS2 coat protein	0.209 µM
ACGUAAUGCAGAAGGAGCGUCUAUGUGUUACAUGAGGAUCACCCAUGUGUUAUGUUAUGUGGACAGGUAGGUCGCUGAAGUACGA [JR_SSArginiB_Sub005]	MS2 coat protein	0.134 µM
AUAAUAAUGUCGGCCGCCACUAUAAACAUGAGGAACAUGAGGAUCACCCAUGUAUGAGGAUCACCUAGGACCGGGACUAAUAUUA [AstrosExyTryB#5]	MS2 coat protein	0.0529 µM
UUACAUGAGGAUCACCCAUGUCAUACAGAAGGAGCGUCACAUAAGACAGGUAGGUCGCUGUUAUUUCAUACUGUUAUAUCCUCUA [JR_Nu_ExcArginiA_Sub029]	MS2 coat protein	0.0471 µM
AAUCAUGGAAACAUGACAUGAGGAUUACUCCGAGGACCGGUACGGCCGCCACUCGCGAGGAGGCGGACAUGAGGAUCACCCAUGU [#03 Tryptophan A Same State]	MS2 coat protein	0.189 µM
UCAAAUGCGGCGGCCGCCACUCGCGGAUAACGAUAGCUUAACAUGAGGAUCACCCAUGUGUCAUGGAGGACCGGGCCCAUAACAU [ttmullin]	MS2 coat protein	0.0371 µM
UCUUGAGUUUCGGAUACCAGUGAUGUCGAUACAUGAGGAUCACCCAUGUUAGAGGAUGUACACCCUUGGCAGCCGGGUGUGGCGG [wswmullin]	MS2 coat protein	0.0275 µM
UGAUGGUGCUGAAGGAGCGUGUAAGAACAAGAACAUGAGGAUCACCCAUGUAUUAAUUUAACGCAGGUAGGUCGCGGUGUUAUUG [11.M]	MS2 coat protein	0.0224 µM
GUUAGAUCAAAAGAUUUAACAGUGGGUGAACGAGGACCGGUACGGCCGCCACUCGGACAUGAGGAUCACCCAUGUCCAUGUGAAA [AstrosExyTryA#16]	MS2 coat protein	0.0159 µM
UGUAUGUGAUCUGAUACCAGAGUUGAUAACCUGAGGAUCACCCUGGUAAGGCGAAAGCCACUCCCUUGGCAGCAGAUCGCAUACU	MS2 coat protein	0.0183 µM
UCGCGAGAGGGAAGGAGCGUCAGCUGAGUCACAUGAGGAUCACCCAUGUCGCACAUAGUGUGACAGGUAGGUCGCCCUCCGCCCU [Leinticees]	MS2 coat protein	0.192 µM
AGCGCGGUGAUGGUAGCCGGACGCUAGGUACGAGGACCGGUACGGCCGCCACUCGGAGUCCUACGACAUGAGGAUCACCCAUGUA [Same State Trp A GF16]	MS2 coat protein	0.111 µM
GGACUAACCUGAAGGAGCGACGCGCAGAAACUGCAAAUUCCUCCACACGAGGAUCACCCGUGUCAGGUAGGUCGCAGGUUAGUCG [ArgBX 28]	MS2 coat protein	0.0182 µM
ACUUCGCAUAGGAAAACUAUGUGAAGAAAUCGAGGACCGGUACGGCCGCCACUCGUCCUCAACAUGAGGAUCACCCAUGUAAUAA [Mat - Exclusion - Trytophan A - D5]	MS2 coat protein	0.0239 µM
AUUCAUGGAAACAUGAGAUAUCCUACCGGUCGAGGACCGGUACGGCCGCCACUCGGUUGGUGGCACAUGAGGAUCACCCAUGUUA [SS Tryp A #12]	MS2 coat protein	0.378 µM
AAUCAUGAAAACAUGACAUGAGGAUCACUCCGAGGACCGGUACGGCCGCCACUCGCGAGGAGGCGGACAUGAGGAUCACCCAUGU [#02 Tryptophan A Same State]	MS2 coat protein	0.421 µM
AAAGGAAGGUAAAAUAAAACUACAUGUGAAGGAGCGCCCGAAAGGGCAGGUAGGUCGCACAUGAGGAUCACCCAUGUCCUUCCAA [ArgEX 6 #SwitchBubble]	MS2 coat protein	0.439 µM
CUACAUUUGUAGAAACCGGUCAACAUUAUUCGAGGACCGGUACGGCCGCCACUCGUAUCAUUUGAUACAUGAGGAUCACCCAUGU [Tryptophan A 8]	MS2 coat protein	0.0266 µM
AGAUUCGACACGGCCGCCACUUGUGGUGGAUUAUCCUAUGUAAGACAUGAGGAUCACCCAUGUACAAGGACCGGGUGUUGAGUCU [XTryp B #22]	MS2 coat protein	0.385 µM
GAGUCCACGGCGGCCGCCACUCGCGGCGCCACAUGGCGCCGGGACAUGAGGAUCACCCAUGUCCCGAGGACCGGGCCGAUCCUUA [Same State Typrtophan B GF3]	MS2 coat protein	0.0315 µM
UGUCAUGGAAACAUGACUGGUUCUACCGGUCGAGGACCGGUACGGCCGCCACUCGAUUGGUGGCACAUGAGGAUCACCCAUGUUA [SS Tryp A #14]	MS2 coat protein	0.0339 µM

---

- Test system: MS2 coat protein
- method_notes: apparent KD of MS2 coat protein; designed switch direction (-1 OFF switch, 1 ON switch): -1; higher = weaker reporter binding
- details: input ligand: FMN 200 uM

polymer_sequence	apparent KD of MS2 coat protein, nM
GGAUUUACUGAGGAUAUUGCAUCACCCGACUGAUAAGAAGGCAGAACAUGAGGAUCACCCAUGUGGGUACUCAA [Bingo-Bango-5] (Eterna round: R97, puzzle: Exclusion 6)	95
AUUUUAUUCUGAGGAUAUUGAUUAAUCCUCUCACAUGAGGAUCACCCAUGUUUCCGUGUUUACCGCAAGAAGGCAGUUUUGUAU [JR_ExcNG2_Sub025] (Eterna round: R96, puzzle: Exclusion NG 2)	41.4
CGUCUGUGAGGAUAUGGUAUCGUUUACAUGAGGAUCACCCAUGUUACAUGGGACUAGAGACUAGAAGGUACGAACG [EX5 #49] (Eterna round: R97, puzzle: Exclusion 5)	212

---

- System: MS2 coat protein
- method_notes: apparent KD of MS2 coat protein; higher = weaker reporter binding
- details: Eterna round: R107; input ligand: theophylline 2 mM
measured_attribute: apparent KD of MS2 coat protein

polymer_sequence	measured_attribute	recorded_value
GACAGACGAGGAAGGAGCGACAUGAGGAUCACCCAUGUUGCGGGUUUAAGGUGAACUAAGUGUCAGGUAGGUCGCCUCGCUUUUA [Diatbeat]	apparent KD of MS2 coat protein	49.3 nM
GGACUAACCAGAAGGAGCGACACGCAGAAACUGCUAAUUCCUCCGCACGAGGAUCACCCGUGUCAGGUAGGUCGCUGGUUAGUCG [ArgBX 28]	apparent KD of MS2 coat protein	24.3 nM
UAAUAAUUGUGAUUCUCAGGUCCUCGAUAACGAGGACCGGUACGGCCGCCACUCGAACAUGAGGAUCACCCAUGUAUGAGGACCU [M'-T'-T-MS2-T'' - Design 3]	apparent KD of MS2 coat protein	19.6 nM
AGUCUUAAUGGAAGGAGCGCAGUCAUAACAUGAGGAUCACCCAUGUCGAGGUGAGGGUCAUUGCAGGUAGGUCGCCAUACUAGGA [Same State - Arginine B (Freestyle 2)]	apparent KD of MS2 coat protein	240 nM
UUUAACAAGAACGUCCUGAGUGACAAGCUACGAGGACCGGUACGGCCGCCACUCGUACCAAAACAUGAGGAUCACCCAUGUUAAA [theeternabot_exclusion_MS2_Trp_A_44]	apparent KD of MS2 coat protein	21.1 nM
UCUAGGCUCGGAAACGAGCCUAGUACAGAAGGAGCGUGGAUUAACACAGGUAGGUCGCUGACAUGAGGAUCACCCAUGUAUUAUU [SSAA #3]	apparent KD of MS2 coat protein	31 nM
GGGUACAUCGCGGCCGCCACUCAUGUAAAUGCGUGAGGAUCACCCAUGCCGAUGGAGACAUCGGAGAGGACCGGGUGAUGUACCG	apparent KD of MS2 coat protein	52.7 nM
CCUAUGCAGUCGGCCGCCACUGAUAAAGUUAUCUUUACCUCAGAAACAUGAGGAUCACCCAUGUACAGGACCGGGACUGUAUAGG [Ex Tryptophan B 18]	apparent KD of MS2 coat protein	15.9 nM
AGCCACUCGAGUGAUCCUCACGAGUGGCUACGAGGACCGGUACGGCCGCCACUCGAAUUAACAUGAGGAUCACCCAUGUAAUCUA [Brourdmod07]	apparent KD of MS2 coat protein	196 nM
UACAUGAGGAUCACCCAUGUCUGAACUGAAGGAGCGCUAAACAAGGCAGGUAGGUCGCGGAAUUUUGUGUGCAUAUGCAUAUGGG [9.K]	apparent KD of MS2 coat protein	36.5 nM
UGGUACUAGGCGGCCGCCACUGGGUGAUACAUGAGGAUCACCCAUGUUUAAUGCCGAGAGGCAACUAGGACCGGGCCUAGUACAU	apparent KD of MS2 coat protein	586 nM
AGCCAUGGAAACAUGGCGGCGGCAUGAGCGCGAGGACCGGUACGGCCGCCACUCGGGCAACAUGAGGAUCACCCAUGUUCCUCAU [ETA NP+V+V2 #20 +-Same Structure]	apparent KD of MS2 coat protein	158 nM
